- Assay Comment: in vitro
- Experimental Context: rat, gh3-tre-luc cells, AC50 (uM) modified / 1000, Tox21_110001=Tox21_302060; viability, 1 nM T3 present, 24 h
Endpoint Name: CC50 at 24 h

Exercise: Kindly indicate its recorded CC50 at 24 h. Item: O=P(O)(O)c1ccccc1 [Phenylphosphonic acid]
Solution: > 90 µM

###

- Tested System: human RXRα (Homo sapiens)
- Construct: host or cells: GeneBLAzer UAS-bla HEK 293T
- Sequence (P19793 227-458 limits assumed): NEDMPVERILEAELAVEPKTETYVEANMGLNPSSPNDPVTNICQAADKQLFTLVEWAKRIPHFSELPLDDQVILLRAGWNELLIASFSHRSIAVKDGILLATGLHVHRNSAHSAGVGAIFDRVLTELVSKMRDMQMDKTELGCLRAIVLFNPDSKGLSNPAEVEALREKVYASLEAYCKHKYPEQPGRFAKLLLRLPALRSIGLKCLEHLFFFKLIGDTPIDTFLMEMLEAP
- Assay Comment: RXRa-bla-Ag mammalian one-hybrid beta-lactamase assay (TOX21_TR_RXR_BLA_Agonist_Followup_ratio, aeid 2253)
- Assay type: cell-based
- Experimental Context: hit call from tcpl
Counter-ions that a name gives are not always drawn.
# tr-followup-rxr-bla-agonist-1 hitc listing for each entry below
Give the figure only, with no unit attached.

Exercise: Kindly indicate its recorded tr-followup-rxr-bla-agonist-1 hitc. Item: Cc1occc(=O)c1O
Solution: 0

Exercise: Kindly indicate its recorded tr-followup-rxr-bla-agonist-1 hitc. Item: CC1(C)COP(Oc2ccccc2)OC1
Solution: 0

Exercise: Kindly indicate its recorded tr-followup-rxr-bla-agonist-1 hitc. Item: C[C@]12CC[C@H]3C(=CCc4cc(O)ccc43)[C@@H]1CCC2=O [Equilin, reference compound]
Solution: 1

Exercise: Kindly indicate its recorded tr-followup-rxr-bla-agonist-1 hitc. Item: COc1ccc(OC)c(C(O)C(C)N)c1 (stereo not shown) [Methoxamine hydrochloride]
Solution: 0

Exercise: Kindly indicate its recorded tr-followup-rxr-bla-agonist-1 hitc. Item: N[C@@H](Cc1cc(I)c(Oc2cc(I)c(O)c(I)c2)c(I)c1)C(=O)O [Levothyroxine, reference compound]
Solution: 0

Exercise: Kindly indicate its recorded tr-followup-rxr-bla-agonist-1 hitc. Item: CC(C)(c1ccccc1)c1ccc(O)c(C(C)(C)c2ccccc2)c1
Solution: 0

Exercise: Kindly indicate its recorded tr-followup-rxr-bla-agonist-1 hitc. Item: O=C(O)CCNC(=O)c1ccccc1 [Betamipron, reference compound]
Solution: 0

Exercise: Kindly indicate its recorded tr-followup-rxr-bla-agonist-1 hitc. Item: CNC(=O)ON=C(CSC)C(C)(C)C
Solution: 0

Exercise: Kindly indicate its recorded tr-followup-rxr-bla-agonist-1 hitc. Item: O=C(Cl)OCCOCCOC(=O)Cl [Diethlylene glycol bis chloroformate]
Solution: 0

Exercise: Kindly indicate its recorded tr-followup-rxr-bla-agonist-1 hitc. Item: Cc1cc(NC(=O)C(=O)O)cc(C)c1Oc1ccc(O)c2c1CCC2 [CP-634384, reference compound]
Solution: 1

###

- System: GH3-TRE-Luc cell line
- Experimental Context: read-out: AC50 (uM) modified / 1000; Tox21_110001=Tox21_201539; viability, 1 nM T3 present, 24 h
Endpoint Name: CC50 (µM)
Just the number please, in µM, no unit attached.

Exercise: Report CC50 on GH3-TRE-Luc cell line for this entry: O=C(O)C1=NN(c2ccc(S(=O)(=O)O)cc2)C(=O)C1N=Nc1ccc(S(=O)(=O)O)cc1 (stereo not shown) [FD&C Yellow 5]
Solution: 43.1

###

- Assay Comment: in vitro
- Experimental Context: rat, gh3-tre-luc cells, AC50 (uM) modified / 1000, Tox21_110001=Tox21_113161; viability, 1 nM T3 present, 24 h
Endpoint Name: CC50 at 24 h

Exercise: Kindly indicate its recorded CC50 at 24 h. Item: C[C@]12CCC(=O)C=C1CC[C@@H]1[C@@H]2CC[C@@]2(C)[C@H]1CC[C@]2(C)O
Solution: > 50 µM

###

# CC50 at 24 h listing for each entry below
- Assay Comment: in vitro
- Experimental Context: rat, gh3-tre-luc cells, AC50 (uM) modified / 1000
Where a name gives a salt, the structure may show the parent alone.

Compound | CC50 at 24 h
CN(Cc1cc(Br)cc(Br)c1N)C1CCCCC1 [Bromhexine hydrochloride] | 42.9 µM
COc1ccccc1N1CCN(CCCCNC(=O)c2ccc(-c3ccc(C(C)=O)cc3)cc2)CC1 | > 50 µM
Cc1ncc(CO)c(C=O)c1O | > 50 µM
CCCCOc1cc(C(=O)NCCN(CC)CC)c2ccccc2n1 | 9.45 µM
Cc1cc(=O)oc2cc(N(C)C)ccc12 | > 90 µM

Exercise: Kindly indicate its recorded CC50 at 24 h. Item: CN1C(=O)C(O)N=C(c2ccccc2)c2cc(Cl)ccc21 (stereo not drawn)
Solution: > 90 µM

Exercise: Kindly indicate its recorded CC50 at 24 h. Item: CC(C(=O)O)c1ccc(N2Cc3ccccc3C2=O)cc1 (stereo not drawn)
Solution: > 50 µM

Exercise: Kindly indicate its recorded CC50 at 24 h. Item: CCCCCC=CCC1CC(=O)OC1=O (stereo not drawn) [2-Octen-1-ylsuccinic anhydride]
Solution: > 90 µM

Exercise: Kindly indicate its recorded CC50 at 24 h. Item: CC1=C(C(=O)O)N2C(=O)[C@@H](NC(=O)[C@H](N)C3=CCC=CC3)[C@H]2SC1
Solution: > 50 µM

###

- Assay Comment: in vitro
- Experimental Context: rat, gh3-tre-luc cells, AC50 (uM) modified / 1000, Tox21_110001=Tox21_202795; viability, 1 nM T3 present, 24 h
Endpoint Name: CC50 at 24 h

Exercise: Kindly indicate its recorded CC50 at 24 h. Item: O=C(CCl)C(Cl)Cl [1,1,3-Trichloropropanone]
Solution: 13 µM

###

- System: GH3-TRE-Luc cell line
- Experimental Context: read-out: AC50 (uM) modified / 1000; Tox21_110001=Tox21_200943; viability, 1 nM T3 present, 24 h
Endpoint Name: CC50 (µM)
Just the number please, in µM, no unit attached.

Exercise: Kindly indicate its recorded CC50. Item: CC/C(=C(\c1ccc(O)cc1)c1ccc(OCCN(C)C)cc1)c1ccccc1 [(Z)-4-Hydroxytamoxifen]
Solution: 5.77

###

- Assay Comment: in vitro
- Experimental Context: rat, gh3-tre-luc cells, AC50 (uM) modified / 1000, Tox21_110001=Tox21_202936; viability, 1 nM T3 present, 24 h
Endpoint Name: CC50 at 24 h

Exercise: Kindly indicate its recorded CC50 at 24 h. Item: CCOC(=O)C(Cl)C(C)=O (stereo not shown) [Ethyl 2-chloroacetoacetate]
Solution: > 90 µM

###

- Assay Comment: in vitro
- Experimental Context: rat, gh3-tre-luc cells, AC50 (uM) modified / 1000, Tox21_110001=Tox21_200363; viability, 1 nM T3 present, 24 h
Endpoint Name: CC50 at 24 h

Exercise: Kindly indicate its recorded CC50 at 24 h. Item: C=CC(C)=O
Solution: > 90 µM

###

- Assay Comment: in vitro
- Experimental Context: rat, gh3-tre-luc cells, AC50 (uM) modified / 1000
Endpoint Name: CC50 at 24 h (µM)
Just the number please, in µM, no unit attached.

Worked examples, 2 molecules total:
Molecule | CC50 at 24 h, µM
CCCSS/C(CCO)=C(/C)N(C=O)Cc1cnc(C)nc1N | 22.5
CC[C@@H]([C@H](C)O)n1ncn(-c2ccc(N3CCN(c4ccc(OC[C@@H]5CO[C@@](Cn6cncn6)(c6ccc(F)cc6F)C5)cc4)CC3)cc2)c1=O | 26.4

Now look at this one.
Exercise: Kindly indicate its recorded CC50 at 24 h. Item: CCN1/C(=C/C=C/c2sc3ccccc3[n+]2CC)Sc2ccccc21 [3,3'-Diethylthiacarbocyanine iodide]
Solution: 1.67

###

- Assay Comment: in vitro
- Experimental Context: rat, gh3-tre-luc cells, AC50 (uM) modified / 1000, Tox21_110001=Tox21_301075; viability, 1 nM T3 present, 24 h
Endpoint Name: CC50 at 24 h

Exercise: Kindly indicate its recorded CC50 at 24 h. Item: N#CCNCC#N [Iminodiacetonitrile]
Solution: > 90 µM

###

- Tested on: GH3-TRE-Luc cell line
- Experimental Context: read-out: AC50 (uM) modified / 1000; Tox21_110001=Tox21_112280; viability, 1 nM T3 present, 24 h
Endpoint Name: CC50 (µM)
Just the number please, in µM, no unit attached.

Exercise: Kindly indicate its recorded CC50. Item: O=S(=O)(O)c1ccc2c(N=Nc3ccc(S(=O)(=O)O)c4ccccc34)c(O)c(S(=O)(=O)O)cc2c1 [Amaranth]
Solution: 19.3

###

- Assay Comment: in vitro
- Experimental Context: rat, gh3-tre-luc cells, AC50 (uM) modified / 1000, Tox21_110001=Tox21_301426; viability, 1 nM T3 present, 24 h
Endpoint Name: CC50 at 24 h

Exercise: Kindly indicate its recorded CC50 at 24 h. Item: CCOP(=S)(OCC)SCSc1ccc(Cl)cc1
Solution: > 90 µM
